# ASSAYED_SYSTEM: T1, Beclin 2 (human, full length) (human, UniProt A8MW95 1-431)
# T1 construct: All tagged and endogenous human forms are kept under this one id; the form used is named under assay; also called BECN2; Flag-Beclin 2
# T1 sequence: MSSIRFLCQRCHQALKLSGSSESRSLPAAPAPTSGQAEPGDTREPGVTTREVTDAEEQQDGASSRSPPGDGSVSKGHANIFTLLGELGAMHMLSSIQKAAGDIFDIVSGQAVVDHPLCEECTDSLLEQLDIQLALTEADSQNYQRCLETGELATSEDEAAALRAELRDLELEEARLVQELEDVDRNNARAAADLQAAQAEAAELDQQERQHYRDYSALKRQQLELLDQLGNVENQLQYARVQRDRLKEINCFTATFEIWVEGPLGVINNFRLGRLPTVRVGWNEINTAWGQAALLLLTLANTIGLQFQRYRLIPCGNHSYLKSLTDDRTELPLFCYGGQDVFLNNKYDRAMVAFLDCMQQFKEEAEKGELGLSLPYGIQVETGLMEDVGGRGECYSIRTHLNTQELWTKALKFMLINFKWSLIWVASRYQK
# PROCEDURE_SUMMARY: co-IP with anti-Flag beads and immunoblot; 293T cells co-transfected with HA-Beclin 2 and a Flag-tagged plasmid (FIG. 13C)

- BINDER: "STX7 (other, human, UniProt O15400 1-261, looked up) MSYTPGVGGDPAQLAQRISSNIQKITQCSVEIQRTLNQLGTPQDSPELRQQLQQKQQYTNQLAKETDKYIKEFGSLPTTPSEQRQRKIQKDRLVAEFTTSLTNFQKVQRQAAEREKEFVARVRASSRVSGSFPEDSSKERNLVSWESQTQPQVQVQDEEITEDDLRLIHERESSIRQLEADIMDINEIFKDLGMMIHEQGDVIDSIEANVENAEVHVQQANQQLSRAADYQRKSRKTLCIIILILVIGVAIISLIIWGLNH"
  binding result: "binds"
